This collection of values is drawn from patent US20200148646A1.

Target: μ-opioid receptor (Homo sapiens)
Sequence (P35372 whole entry, species assumed): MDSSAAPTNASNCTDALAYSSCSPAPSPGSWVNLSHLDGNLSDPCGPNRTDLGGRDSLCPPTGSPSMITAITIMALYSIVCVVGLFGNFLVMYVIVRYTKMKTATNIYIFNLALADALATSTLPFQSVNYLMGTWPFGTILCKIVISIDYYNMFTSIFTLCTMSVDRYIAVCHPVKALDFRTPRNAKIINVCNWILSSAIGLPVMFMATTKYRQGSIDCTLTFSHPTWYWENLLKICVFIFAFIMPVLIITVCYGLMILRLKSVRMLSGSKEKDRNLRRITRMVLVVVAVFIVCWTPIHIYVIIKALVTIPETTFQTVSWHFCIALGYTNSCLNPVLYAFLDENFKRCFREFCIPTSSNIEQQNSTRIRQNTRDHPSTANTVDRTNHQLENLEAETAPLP
REPORTED_PROPERTY: pKi
The quantity pKi is defined as the negative base-10 logarithm of the molar concentration.

Guide cases for pKi, answers given:
[
  {
    "COMPOUND": "N=C(N)NCC(=O)N[C@@H]1CC[C@@]2(O)[C@H]3Cc4ccc(O)cc4[C@@]2(CCN3CC2CC2)C1 [Compound 20]",
    "REPORTED_PROPERTY": "pKi",
    "RECORDED_MEASUREMENT": 6.35
  },
  {
    "COMPOUND": "COc1ccc2c(c1)[C@]13CCN(CC4CC4)[C@H](C2)[C@]1(O)C[C@H](C)[C@H](O)C3 [Compound 3]",
    "REPORTED_PROPERTY": "pKi",
    "RECORDED_MEASUREMENT": 5.21
  },
  {
    "COMPOUND": "COc1ccc2c(c1)[C@]13CCN(CC4CC4)[C@H](C2)[C@]1(O)CC[C@H](O)C3 [Compound 4]",
    "REPORTED_PROPERTY": "pKi",
    "RECORDED_MEASUREMENT": 5.34
  },
  {
    "COMPOUND": "NCCCCN[C@@H]1CC[C@@]2(O)[C@H]3Cc4ccc(O)cc4[C@@]2(CCN3CC2CC2)C1 [Compound 14]",
    "REPORTED_PROPERTY": "pKi",
    "RECORDED_MEASUREMENT": 6.91
  },
  {
    "COMPOUND": "N=C(N)NCCCC(=O)N[C@@H]1CC[C@@]2(O)[C@H]3Cc4ccc(O)cc4[C@@]2(CCN3CC2CC2)C1 [Compound 22]",
    "REPORTED_PROPERTY": "pKi",
    "RECORDED_MEASUREMENT": 6.60
  },
  {
    "COMPOUND": "N=C(N)NCCN[C@@H]1CC[C@@]2(O)[C@H]3Cc4ccc(O)cc4[C@@]2(CCN3CC2CC2)C1 [Compound 12]",
    "REPORTED_PROPERTY": "pKi",
    "RECORDED_MEASUREMENT": 7.27
  }
]

Just so you know, measured pKi for NCCN[C@@H]1CC[C@@]2(O)[C@H]3Cc4ccc(O)cc4[C@@]2(CCN3CC2CC2)C1 [Compound 11] came out at 7.15
